Sourced from patent US20250339396A1

- method-summary: Pharmacokinetic study in male Beagle dogs (UCM924 measured in plasma)
- Type: in vivo
- condition-details: dog, UCM924 plasmatic level, UCM924 2 mg/kg IV
observable: half-life (h)
Please reply with the bare figure in h and do not write the unit itself.

INPUT: Look up half-life of CC(=O)NCCN(c1ccc(F)cc1)c1cccc(Br)c1 [UCM924] and report it.
OUTPUT: 1.79

---

bioavailability values by entry
- method-summary: Oral bioavailability and brain penetrance of UCM765 and UCM924
- condition-details: in vivo, po
Remember to put the unit after the number in your answer.

COc1cccc(N(CCNC(C)=O)c2ccccc2)c1; 2%

# input for lookup
INPUT: Look up bioavailability of CC(=O)NCCN(c1ccc(F)cc1)c1cccc(Br)c1 and report it.
OUTPUT: 6%

---

- method-summary: Pharmacokinetic study in male rats (UCM924 measured in plasma)
- Type: in vivo
- condition-details: Sprague-Dawley, rat, po, UCM924 plasmatic level, UCM924 20 mg/kg per os
observable: Cmax (ng/mL)
Please reply with the bare figure in ng/mL and do not write the unit itself.

INPUT: Look up Cmax of CC(=O)NCCN(c1ccc(F)cc1)c1cccc(Br)c1 and report it.
OUTPUT: 42

---

- method-summary: Pharmacokinetic study in male rats (UCM924 measured in plasma)
- Format: in vivo
- condition-details: Sprague-Dawley, rat, po, UCM924 plasmatic level, UCM924 20 mg/kg per os
- Method: In vivo pharmacokinetic studies of prodrug D were carried in male rats (Sprague-Dawley, weight 210-214 grams) and male dogs (Beagles, weight 8960-9820 grams). […] Rats were randomly assigned to treatment groups (n=3) and received a single oral administration (50 mg/kg) of Prodrug D and the level of the active metabolite UCM924 was then measured. […] UCM924 (20 mg/kg) was also administered per os in rats and IV in dogs (2 mg/kg) and it was measured in plasma. […]
observable: AUC(0-t) (ng·h/mL)
Please reply with the bare figure in ng·h/mL and do not write the unit itself.

INPUT: Look up AUC(0-t) of CC(=O)NCCN(c1ccc(F)cc1)c1cccc(Br)c1 and report it.
OUTPUT: 97.7

---

- method-summary: Solubility of Prodrug D
- Assay type: physicochemical
- condition-details: aqueous with cosolvent or surfactant or cyclodextrin; in PEG400:water 40%:60% mixture
observable: solubility

INPUT: Look up solubility of CC(=O)N(CCN(c1ccc(F)cc1)c1cccc(Br)c1)C(=O)OCOC(=O)CN.Cl [Prodrug D] and report it.
OUTPUT: > 125 mg/mL

---

- method-summary: Pharmacokinetic study in male Beagle dogs (UCM924 measured in plasma)
- Type: in vivo
- condition-details: dog, UCM924 plasmatic level, UCM924 2 mg/kg IV
observable: AUC(0-t) (ng·h/mL)
Please reply with the bare figure in ng·h/mL and do not write the unit itself.

INPUT: Look up AUC(0-t) of CC(=O)NCCN(c1ccc(F)cc1)c1cccc(Br)c1 and report it.
OUTPUT: 1690

---

- method-summary: Solubility of Prodrug D
- Type: physicochemical
- condition-details: in water
observable: solubility

INPUT: Look up solubility of CC(=O)N(CCN(c1ccc(F)cc1)c1cccc(Br)c1)C(=O)OCOC(=O)CN.Cl [Prodrug D] and report it.
OUTPUT: > 150 mg/mL
